Biological target: Amine oxidase [flavin-containing] B (Homo sapiens)
Sequence (P27338 whole entry): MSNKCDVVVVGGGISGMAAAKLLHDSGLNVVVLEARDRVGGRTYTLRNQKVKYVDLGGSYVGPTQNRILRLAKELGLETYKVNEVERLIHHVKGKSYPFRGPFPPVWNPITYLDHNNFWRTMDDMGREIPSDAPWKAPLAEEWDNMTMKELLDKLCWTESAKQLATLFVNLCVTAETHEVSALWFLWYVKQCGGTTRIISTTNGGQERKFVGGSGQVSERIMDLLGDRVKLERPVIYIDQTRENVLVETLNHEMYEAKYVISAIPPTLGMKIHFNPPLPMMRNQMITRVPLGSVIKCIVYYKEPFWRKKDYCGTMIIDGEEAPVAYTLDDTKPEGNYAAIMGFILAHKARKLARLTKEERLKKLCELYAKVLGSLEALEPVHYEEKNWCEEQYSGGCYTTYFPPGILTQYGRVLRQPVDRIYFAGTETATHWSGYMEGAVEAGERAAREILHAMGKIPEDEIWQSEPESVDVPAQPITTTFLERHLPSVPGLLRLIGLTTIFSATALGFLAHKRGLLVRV
Test: Inhibition of human recombinant microsomal MAO-B expressed in baculovirus infected BTI-TN-5B1-4 cells assessed as reduction in production of H202 using p-tyramine as substrate incubated for 30 mins followed by substrate addition by horse radish peroxidase/Amplex red reagent based fluorescence assay
Parameter IC50: see the listing below.
measured-quantity: IC50 (µM)

1. C#CCOc1ccccc1-c1cc(-c2ccccc2OCC#C)nc(N)n1 | 11.1
2. C#CCOc1ccc(-c2cc(-c3ccc(OCC#C)c(OCC)c3)nc(N)n2)cc1 | 14
3. C#CCOc1ccc(-c2cc(-c3ccc(OCC#C)cc3)nc(C)n2)cc1 | 7.83
